Origin of measurements: patent US20170101472A1

For each entry below, report its pEC50 value.
- experimental-target: T1, human LAG3 expressed on HEK293 cells (human, UniProt P18627 23-525)
- T1 construct: also called hLAG3; HEK293/hLAG3
- T1 sequence: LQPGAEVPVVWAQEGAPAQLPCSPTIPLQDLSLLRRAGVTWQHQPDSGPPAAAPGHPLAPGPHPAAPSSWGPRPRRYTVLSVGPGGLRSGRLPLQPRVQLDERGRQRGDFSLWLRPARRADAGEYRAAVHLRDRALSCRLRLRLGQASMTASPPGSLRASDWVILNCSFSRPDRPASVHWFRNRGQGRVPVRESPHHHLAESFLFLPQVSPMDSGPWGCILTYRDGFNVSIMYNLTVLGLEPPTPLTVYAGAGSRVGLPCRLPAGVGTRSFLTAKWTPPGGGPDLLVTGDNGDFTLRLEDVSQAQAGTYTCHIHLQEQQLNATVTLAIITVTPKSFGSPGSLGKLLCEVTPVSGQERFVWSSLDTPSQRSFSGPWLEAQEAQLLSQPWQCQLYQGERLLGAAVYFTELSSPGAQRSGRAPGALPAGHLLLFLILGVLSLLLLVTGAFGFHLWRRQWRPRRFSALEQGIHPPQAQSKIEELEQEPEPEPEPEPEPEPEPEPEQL
- test: electrochemiluminescence cell binding, HEK293-hLAG3
- Method: To investigate the ability of a panel of anti-LAG3 monoclonal antibodies to bind cell-surface expressed LAG3, an in vitro binding assay utilizing human and monkey LAG3 expressing cell lines in an electrochemiluminescence based detection platform [Meso Scale Diagnostics, Rockville, Md.—(MSD)] was developed. Experiments were carried out according to following procedure. […] The plate-bound antibodies were detected with a SULFO-TAG™-conjugated anti-human IgG antibody (MSD) for 1 hour at room temperature. […]
Numbers only, as −log10 of the molar value.

Worked cases, answers included:
Challenge: Please report the recorded pEC50 for H4H15479P (antibody, human IgG4, V domains shown) VH: QVQLQQWGAGLLNPSETLSLTCAVYGGAFSDYYWNWIRQPPGKGLEWIGEINHRGSTNYNPSLKSRVTISVDTSKNQFSLRMSSVTAADAAVYYCARGEDYDIWNGYYQEKWGQGTLVTVSS VL: EIVLTQSPATLSLSPGERATLSCRASQSISTYLAWYQQKPGQAPRLLIYDASKRATGIPARFSGSGSGTDFTLTISSLEPEDFVVYYCHQRSNWPLTFGGGTKVEIK .
Response given: 7.28

Challenge: Please give the measured pEC50 for this binder: H4sH15479P (antibody, V domains shown) VH: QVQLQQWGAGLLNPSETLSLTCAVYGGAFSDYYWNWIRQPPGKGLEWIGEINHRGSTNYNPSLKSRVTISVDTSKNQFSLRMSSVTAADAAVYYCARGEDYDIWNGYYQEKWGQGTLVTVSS VL: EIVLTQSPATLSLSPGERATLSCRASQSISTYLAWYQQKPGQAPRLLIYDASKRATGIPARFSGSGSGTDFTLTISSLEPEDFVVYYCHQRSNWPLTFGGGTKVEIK
Response given: 7.87

More entries:
Challenge: Look at this binder and give its reported pEC50. H4sH14813N (antibody, human IgG4 S228P, kappa, V domains shown, H4sH = modified human IgG4 Fc) VH: QVQLQQWGAGLLKPSETLSLTCAVYGGSFSGYYWNWIRQPPGKGLEWVGEISHRGSTNYNPSLKSRVTISLDTSKNQFSLKLTSVTAADTAVYYCSRDEELEFRFFDYWGQGTLVTVSS VL: EIVLTQSPATLSLSPGERATLSCRASQSVSSYLAWYQQKPGQAPRLLVYGASNRATGIPARFSGSGSGTDFTLTISSLEPEDFAFYYCQQRSNWPLTFGGGTKVEIKR
Response given: 7.69
